Target: MCR-4 (Homo sapiens, UniProt P32245)
Construct: expressed in transfected cells; host or cells: HEK 293
Sequence (P32245 whole entry): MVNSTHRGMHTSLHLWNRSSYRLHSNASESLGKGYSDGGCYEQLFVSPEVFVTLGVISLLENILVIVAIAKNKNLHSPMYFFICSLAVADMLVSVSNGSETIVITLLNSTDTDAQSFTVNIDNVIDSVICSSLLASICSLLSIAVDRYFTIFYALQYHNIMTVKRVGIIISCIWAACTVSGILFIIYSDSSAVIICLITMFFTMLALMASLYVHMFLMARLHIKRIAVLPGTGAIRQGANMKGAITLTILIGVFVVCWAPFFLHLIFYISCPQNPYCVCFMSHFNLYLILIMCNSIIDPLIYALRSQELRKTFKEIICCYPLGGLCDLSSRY
Experiment: Melanocortin receptor binding assay, competition with 125I-HP 467, HEK 293 cells expressing hMCR-4
Settings: competition with 125I-HP 467, HEK 293 cells expressing MCR-4; read-out: MC-4 IC50
measure: IC50 (nM)
Value expressed in nM; do not type the unit.

The compound listed as NCC(CCCCN1Cc2ccccc2C(CN)C1c1ccc(-c2ccccc2)cc1)NCCO (centres unmarked) has a reported IC50 of 1420

The compound listed as CCCCNc1ccc(C2C(CN)c3ccccc3CN2CCCC(CN)NCc2ccccc2)cc1 (centres unmarked) has a reported IC50 of 1320

The compound listed as CNC(CN)CCCCN1Cc2ccccc2C(CNC2CCCCC2)C1c1ccc(NCCc2ccccc2)cc1 (centres unmarked) has a reported IC50 of 15500

The compound listed as CCCCNc1ccc(C2C(CNCCc3ccccc3)c3ccccc3CN2CCCCC(CN)NCC)cc1 (centres unmarked) has a reported IC50 of 2240

The compound listed as CCCCNc1ccc(C2C(CN)c3ccccc3CN2CCCCC(CN)NCCc2ccc3ccccc3c2)cc1 (centres unmarked) has a reported IC50 of 1050

The compound listed as CCCCNc1ccc(C2C(CNC3CCCCC3)c3ccccc3CN2CCCCC(CN)NCc2ccc(OC)cc2)cc1 (centres unmarked) has a reported IC50 of 1030

The compound listed as CCCCNc1ccc(C2C(CNC3CCCCC3)c3ccccc3CN2CCCCC(CN)NC)cc1 (centres unmarked) has a reported IC50 of 15100

The compound listed as CCCCNc1ccc(C2C(CNCCc3ccccc3)c3ccccc3CN2CCCCC(CN)NCCc2ccc(Br)cc2)cc1 (centres unmarked) has a reported IC50 of 1320

The compound listed as CCNc1ccc(C2C(CNC3CCCCC3)c3ccccc3CN2CCCCC(CN)NCCc2ccc3ccccc3c2)cc1 (centres unmarked) has a reported IC50 of 1190

The compound listed as CCCCNc1ccc(C2C(CNCCc3ccccc3)c3ccccc3CN2CCCCC(CN)NCCc2ccccc2)cc1 (centres unmarked) has a reported IC50 of 1490

The compound listed as CCNc1ccc(C2C(CNCCc3ccccc3)c3ccccc3CN2CCCCC(CN)NCc2ccccc2)cc1 (centres unmarked) has a reported IC50 of 1030

The compound listed as CCNc1ccc(C2C(CNCCc3ccccc3)c3ccccc3CN2CCCC[C@@H](CN)NCCc2ccc(OC)cc2)cc1 (some centres unmarked) has a reported IC50 of 1560

The compound listed as CCCCNc1ccc(C2C(CN)c3ccccc3CN2CCCC(CN)NCc2ccc(Cl)cc2)cc1 (centres unmarked) has a reported IC50 of 1120

The compound listed as CCNc1ccc(C2C(CNC3CCCCC3)c3ccccc3CN2CCCCC(CN)NCCc2ccc(OC)cc2)cc1 (centres unmarked) has a reported IC50 of 1650

The compound listed as CNC(C)CNC(CN)CCCCN1Cc2ccccc2C(CN)C1c1ccc(-c2ccccc2)cc1 (mixture of isomers) has a reported IC50 of 1230

The compound listed as CCCCNc1ccc(C2C(CN)c3ccccc3CN2CCCCC(CN)NCCC2CCCCC2)cc1 (centres unmarked) has a reported IC50 of 1470

The compound listed as NCC(CCCN1Cc2ccccc2C(CN)C1c1ccc(-c2ccccc2)cc1)NCC1CCCCC1 (centres unmarked) has a reported IC50 of 1960

* * *

Biological target: MCR-1 (Homo sapiens, UniProt Q01726)
Construct: expressed in transfected cells; host or cells: HEK 293
Sequence (Q01726 whole entry): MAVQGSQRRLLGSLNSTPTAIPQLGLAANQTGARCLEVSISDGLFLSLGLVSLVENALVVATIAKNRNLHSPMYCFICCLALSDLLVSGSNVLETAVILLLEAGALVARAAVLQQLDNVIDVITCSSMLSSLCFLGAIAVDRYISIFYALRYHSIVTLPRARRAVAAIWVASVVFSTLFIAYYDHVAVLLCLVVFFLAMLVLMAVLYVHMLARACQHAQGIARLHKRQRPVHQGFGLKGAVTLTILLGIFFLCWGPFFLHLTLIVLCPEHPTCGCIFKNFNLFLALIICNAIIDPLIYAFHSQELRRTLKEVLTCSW
Assay: Melanocortin receptor binding assay, competition with 125I-HP 467, HEK 293 cells expressing hMCR-1
Conditions: inhibition of binding of 125I-HP 467, HEK 293 cells expressing MCR-1; read-out: MC-1 IC50
measure: IC50 (nM)
Value expressed in nM; do not type the unit.

The compound listed as CCNc1ccc(C2C(CNC3CCCCC3)c3ccccc3CN2CCCC(CN)NCCc2ccc3ccccc3c2)cc1 (stereo not shown) [TRG 2411-172] has a reported IC50 of 220

The compound listed as CCNc1ccc(C2C(CNCCc3ccccc3)c3ccccc3CN2CCCC(CN)NCc2ccc(Cl)cc2)cc1 (stereo not shown) [TRG 2411-159] has a reported IC50 of 100

The compound listed as CCNc1ccc(C2C(CNC3CCCCC3)c3ccccc3CN2CCCC(CN)NCc2ccccc2)cc1 (stereo not shown) [TRG 2411-169] has a reported IC50 of 220

The compound listed as CCNc1ccc(C2C(CN)c3ccccc3CN2CCCC(CN)NCCCCN)cc1 (stereo not shown) [TRG 2419-11] has a reported IC50 of 199

The compound listed as CCNc1ccc(C2C(CNCCc3ccccc3)c3ccccc3CN2CCCC(CN)NCCC2CCCCC2)cc1 (stereo not shown) [TRG 2411-162] has a reported IC50 of 110

The compound listed as CCCOc1ccc(C2C(CO)c3ccccc3CN2CCCC(CN)NCCC2CCCCC2)cc1 (mixture of isomers) [TRG 2415-4] has a reported IC50 of 2570

The compound listed as CCCCNc1ccc(C2C(CNCCc3ccccc3)c3ccccc3CN2CCCC(CN)NCCC2CCCCC2)cc1 (stereo not shown) [TRG 2411-200] has a reported IC50 of 130

The compound listed as CCNc1ccc(C2C(CNC3CCCCC3)c3ccccc3CN2CCCC(CN)NCCc2ccccc2)cc1 (stereo not shown) [TRG 2413-10] has a reported IC50 of 310

The compound listed as CCCCOc1ccc(C2C(CNCCc3ccccc3)c3ccccc3CN2CCCCC(CN)NCCc2ccccc2)cc1 (stereo not shown) [TRG 2412-11] has a reported IC50 of 820

The compound listed as CCc1ccc(C2C(CN)c3ccccc3CN2CCCC(CN)NCCC2CCCCC2)cc1 (stereo not shown) [TRG 2415-13] has a reported IC50 of 1830

The compound listed as CCOc1ccc(C2C(CNCCc3ccccc3)c3ccccc3CN2CCCC(CN)NCCc2ccccc2)cc1 (stereo not shown) [TRG 2412-20] has a reported IC50 of 150

The compound listed as CCNc1ccc(C2C(CNCCc3ccccc3)c3ccccc3CN2CCCC(CN)NCCCCN(CC)CC)cc1 (stereo not shown) [TRG 2419-4] has a reported IC50 of 58

The compound listed as CCNc1ccc(C2C(CNCCc3ccccc3)c3ccccc3CN2CCCC(N)CN)cc1 (stereo not shown) [TRG 2411-150] has a reported IC50 of 120

The compound listed as COc1ccc(CNC(CN)CCCCN2Cc3ccccc3C(CNCCc3ccc(Cl)cc3)C2c2cc(C(F)(F)F)cc(C(F)(F)F)c2)cc1 (stereo not shown) [TRG 2421-34] has a reported IC50 of 4980

The compound listed as CCNc1ccc(C2C(CN)c3ccccc3CN2CCCCC(CN)NCCNC)cc1 (stereo not shown) [TRG 2413-3] has a reported IC50 of 1560

The compound listed as CCNc1ccc(C2C(CNC3CCCCC3)c3ccccc3CN2CCCC(CN)N2CCCC2)cc1 (stereo not shown) [TRG 2411-166] has a reported IC50 of 40

* * *

For each entry below, report its IC50 value.
Target: MCR-4 (Homo sapiens, UniProt P32245)
Construct: expressed in transfected cells; host or cells: HEK 293
Assay: Melanocortin receptor binding assay, competition with 125I-HP 467, HEK 293 cells expressing hMCR-4
Settings: TRG 2406 and TRG 2407 libraries; inhibition of binding of 125I-HP 467; read-out: MC-4 IC50
Value expressed in µM; do not type the unit.

The compound listed as CCNc1ccc(C2C(CNCc3ccccc3)c3ccccc3CN2CCCCC(CN)NC)cc1 (centres unmarked) [TRG 2407-50] has a reported IC50 of 9.1

The compound listed as C=CCNCC1c2ccccc2CN(CCCCC(CN)NC)C1c1ccc(Cl)cc1Cl (centres unmarked) [TRG 2407-36] has a reported IC50 of 0.46

The compound listed as CCNc1ccc(C2C(CN(C)Cc3ccccc3)c3ccccc3CN2CCCCC(CN)NC)cc1 (centres unmarked) [TRG 2407-51] has a reported IC50 of 13.5

The compound listed as CNC(CN)CCCCN1Cc2ccccc2C(CNCc2ccccc2O)C1c1ccc(Oc2ccccc2)cc1 (centres unmarked) [TRG 2406-13] has a reported IC50 of 1.29

The compound listed as NCCN1Cc2ccccc2C(CNCc2ccccc2O)C1c1cccc(Oc2ccc(Cl)c(Cl)c2)c1 (centres unmarked) [TRG 2406-2] has a reported IC50 of 3.86

The compound listed as CNC(CN)CN1Cc2ccccc2C(CNCc2ccccc2O)C1c1ccc(Oc2ccccc2)cc1 (centres unmarked) [TRG 2406-12] has a reported IC50 of 2.62

The compound listed as CNC(CN)CCCCN1Cc2ccccc2C(CNc2ccccc2OC)C1c1ccc(Cl)cc1Cl (centres unmarked) [TRG 2407-4] has a reported IC50 of 4.12

The compound listed as CCNc1ccc(C2C(CN(C)c3ccccc3)c3ccccc3CN2CCCCC(CN)NC)cc1 (centres unmarked) [TRG 2407-42] has a reported IC50 of 7.9

The compound listed as CNC(CN)CCCCN1Cc2ccccc2C(CNCCc2cccc(Cl)c2)C1c1ccc(Cl)cc1Cl (mixture of isomers) [TRG 2407-24] has a reported IC50 of 0.8

The compound listed as CNC(CN)CCCCN1Cc2ccccc2C(CO)C1c1ccc(Cl)cc1Cl (centres unmarked) [TRG 2407-40] has a reported IC50 of 4.94

The compound listed as COc1ccc(Oc2cccc(C3C(CNCc4ccccc4O)c4ccccc4CN3CCN)c2)cc1 (centres unmarked) [TRG 2406-5] has a reported IC50 of 3.41

The compound listed as CNC(CN)CCCCN1Cc2ccccc2C(CNCc2cccc(C(F)(F)F)c2)C1c1ccc(Cl)cc1Cl (centres unmarked) [TRG 2407-17] has a reported IC50 of 9.22

The compound listed as CNC(CN)CCCCN1Cc2ccccc2C(CNc2ccc(Cl)cc2)C1c1ccc(Cl)cc1Cl (centres unmarked) [TRG 2407-8] has a reported IC50 of 21.2

The compound listed as CNC(CN)CCCCN1Cc2ccccc2C(CNC(C)C)C1c1ccc(Cl)cc1Cl (centres unmarked) [TRG 2407-37] has a reported IC50 of 0.54

The compound listed as CNC(CN)CCCCN1Cc2ccccc2C(CNCc2ccccc2O)C1c1cccc(Oc2ccccc2)c1 (centres unmarked) [TRG 2406-10] has a reported IC50 of 0.26

The compound listed as CNC(CN)CN1Cc2ccccc2C(CNCc2ccccc2O)C1c1cccc(Oc2ccccc2)c1 (centres unmarked) [TRG 2406-9] has a reported IC50 of 2.1

The compound listed as CCCOc1ccc(C2C(CNCc3ccccc3O)c3ccccc3CN2CCCCC(CN)NC)cc1 (centres unmarked) [TRG 2406-16] has a reported IC50 of 11.6
